Target: 5-HT2A receptor (Homo sapiens, UniProt P28223)
Construct: purchased PerkinElmer
Sequence (P28223 whole entry): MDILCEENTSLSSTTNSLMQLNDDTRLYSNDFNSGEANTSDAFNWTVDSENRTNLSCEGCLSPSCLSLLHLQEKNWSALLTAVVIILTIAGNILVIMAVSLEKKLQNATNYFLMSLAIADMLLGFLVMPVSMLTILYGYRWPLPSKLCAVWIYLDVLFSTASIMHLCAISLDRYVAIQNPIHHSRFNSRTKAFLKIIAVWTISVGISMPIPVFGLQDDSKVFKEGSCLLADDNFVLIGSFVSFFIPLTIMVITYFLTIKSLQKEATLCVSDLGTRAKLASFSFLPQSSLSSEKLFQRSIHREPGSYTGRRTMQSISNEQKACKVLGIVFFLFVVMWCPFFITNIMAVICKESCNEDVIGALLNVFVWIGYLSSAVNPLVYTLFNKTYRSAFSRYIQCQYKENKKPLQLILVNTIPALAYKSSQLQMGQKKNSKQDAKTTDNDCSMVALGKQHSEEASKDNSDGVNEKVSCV
Test: Radioligand binding assay, serotoninergic 5-HT2A receptors
Details: binding assay result in %, Table 5a
recorded-endpoint: inhibition at 1 µM (%)

>>> recorded_result("O=S(=O)(NCC1CN(CCCc2noc3cc(F)ccc23)C1)c1cc2ccccc2s1")
96
>>> recorded_result("O=S(=O)(NCC1CN(CCCc2noc3cc(F)ccc23)C1)c1ccc2ccccc2c1")
99
>>> recorded_result("O=S(=O)(NC1CN(CCOc2cccc3[nH]ccc23)C1)c1ccccc1")
75
>>> recorded_result("O=S(=O)(NC1CCN(CCCc2noc3cc(F)ccc23)CC1)c1cc2ccccc2s1")
99
>>> recorded_result("O=S(=O)(N[C@H]1CCN(CCCc2noc3cc(F)ccc23)C1)c1cc2ccccc2s1")
99
>>> recorded_result("O=S(=O)(NCC1CCN(CCOc2nsc3ccccc23)C1)c1ccc2ccccc2c1 (stereo not drawn)")
78
>>> recorded_result("CCCc1ccc(S(=O)(=O)NCC2CN(CCCc3noc4cc(F)ccc34)C2)cc1")
95
>>> recorded_result("Cc1c(S(=O)(=O)NCC2CCN(CCOc3cccc4ccccc34)C2)sc2ccc(Cl)cc12 (stereo not drawn)")
82
>>> recorded_result("O=S(=O)(NC1CCN(CCCc2noc3cc(F)ccc23)C1)c1ccc(Cl)c(F)c1 (stereo not drawn)")
100
>>> recorded_result("O=S(=O)(NCC1CN(CCOc2cccc3ccccc23)C1)c1ccc(F)c(F)c1")
73
>>> recorded_result("O=S(=O)(NC1CN(CCOc2cccc3[nH]ccc23)C1)c1ccc2ccccc2c1")
97
>>> recorded_result("Cc1cc(S(=O)(=O)NCC2CCN(CCOc3cccc4c3OCCO4)C2)c(C)s1 (stereo not drawn)")
87
>>> recorded_result("Cn1ccc2cc(S(=O)(=O)NCC3CCN(CCOc4cccc5ccccc45)C3)ccc21 (stereo not drawn)")
89
>>> recorded_result("O=S(=O)(NCC1CCN(CCOc2cccc3ccccc23)C1)c1ccc2cc(Cl)ccc2c1 (stereo not drawn)")
86
>>> recorded_result("O=S(=O)(NCC1CN(CCOc2cccc3c2OCCO3)C1)c1ccc(I)cc1")
88
>>> recorded_result("O=S(=O)(NC1CCN(CCCc2noc3cc(F)ccc23)C1)c1ccc2c(c1)OCC2 (stereo not drawn)")
95
>>> recorded_result("O=S(=O)(NCC1CCN(CCOc2cccc3c2OCCO3)C1)c1ccc(C(F)(F)F)cc1 (stereo not drawn)")
86
>>> recorded_result("O=S(=O)(NC1CCN(CCCc2noc3cc(F)ccc23)C1)c1cc2ccccc2s1 (stereo not drawn)")
102
>>> recorded_result("Cc1c(S(=O)(=O)NCC2CCN(CCCc3noc4cc(F)ccc34)C2)sc2ccc(Cl)cc12 (stereo not drawn)")
99
>>> recorded_result("O=S(=O)(NC1CCN(CCCc2noc3cc(F)ccc23)C1)c1cc2ccc(F)cc2s1 (stereo not drawn)")
100
>>> recorded_result("Cc1ccc(S(=O)(=O)NCC2CCN(CCOc3cccc4c3OCCO4)C2)cc1 (stereo not drawn)")
63
>>> recorded_result("O=S(=O)(NCC1CCN(CCCc2noc3cc(F)ccc23)C1)c1cccc(Cl)c1 (stereo not drawn)")
90
>>> recorded_result("Cn1ccc2c(S(=O)(=O)NC3CCN(CCCc4noc5cc(F)ccc45)CC3)cccc21")
94
>>> recorded_result("O=S(=O)(NCC1CN(CCOc2cccc3c2OCCO3)C1)c1ccc(Br)cc1")
39
>>> recorded_result("Cc1cccc(S(=O)(=O)NC2CCN(CCCc3c[nH]c4ccc(F)cc34)C2)c1 (stereo not drawn)")
95
>>> recorded_result("COc1cccc(S(=O)(=O)NCC2CN(CCCc3noc4cc(F)ccc34)C2)c1")
94
>>> recorded_result("O=S(=O)(NC1CCN(CCCc2noc3cc(F)ccc23)C1)c1ccc(-c2ccccc2)cc1 (stereo not drawn)")
101
>>> recorded_result("Cc1c(S(=O)(=O)NCC2CN(CCCc3noc4cc(F)ccc34)C2)sc2ccc(Cl)cc12")
99
>>> recorded_result("O=S(=O)(NC1CCN(CCCc2c[nH]c3ccc(Cl)cc23)C1)c1ccc2ccccc2c1 (stereo not drawn)")
78
>>> recorded_result("O=S(=O)(NCC1CN(CCCc2noc3cc(F)ccc23)C1)c1cccc2ccccc12")
95
>>> recorded_result("O=S(=O)(NC1CCN(CCOc2cccc3[nH]ccc23)C1)c1ccc2ccccc2c1 (stereo not drawn)")
88
>>> recorded_result("Cc1c(S(=O)(=O)NCC2CN(CCOc3cccc4ccccc34)C2)sc2ccc(F)cc12")
100
>>> recorded_result("O=C1Cc2cc(S(=O)(=O)NCC3CN(CCOc4cccc5c4OCCO5)C3)ccc2N1")
74
